Test System: GST-tagged-Wee1 kinase (Homo sapiens)
Assay Notes: Wee1 time-resolved fluorescence equilibrium binding assay (displacement of Oregon Green-labeled ATP-competitive kinase probe)
Test Readout: Ki

Known Ki results, listed for orientation:
{"columns": ["Structure Smiles String", "Ki"],
 "data": [
  ["C=CCn1nc(-c2cccs2)c2nc(Nc3ccc(S(=O)(=O)N4CCOCC4)cc3)ncc2c1=O", "> 3.14 µM"],
  ["Cc1ccccc1-n1nc(-c2cccs2)c2nc(Nc3ccc(S(=O)(=O)N4CCOCC4)cc3)ncc2c1=O", "> 3.14 µM"]
]}

Would you kindly look at the next entry?
query: Quick check: Ki of C=CCn1nc(-c2ccco2)c2nc(Nc3ccc(S(=O)(=O)N4CCOCC4)cc3)ncc2c1=O ?
result: > 3.14 µM

----------
Consider the following compounds; for each one, report its pKi.
Test System: GST-tagged-Wee1 kinase (Homo sapiens)
Assay Notes: Wee1 time-resolved fluorescence equilibrium binding assay (displacement of Oregon Green-labeled ATP-competitive kinase probe)
Answers are plain numbers, as −log10 of the molar value.

{"columns": ["Structure Smiles String", "pKi"],
 "data": [
  ["CCNCCn1cc(-c2nn(-c3c(Cl)cccc3Cl)c(=O)c3cnc(Nc4ccc(N5CCN(C)CC5)cc4)nc23)cn1", 9.52]
]}

Switching to the query record.
query: Given the entry CN1CCN(c2ccc(Nc3ncc4c(=O)n(-c5c(Cl)cccc5Cl)nc(-c5cnn(CCCl)c5)c4n3)cc2)CC1 , report its measured pKi.
result: 9.52

----------
I'd be grateful if you could share measured pKi for these entries.
Test System: GST-tagged-Wee1 kinase (Homo sapiens, UniProt P30291)
Sequence (P30291 whole entry): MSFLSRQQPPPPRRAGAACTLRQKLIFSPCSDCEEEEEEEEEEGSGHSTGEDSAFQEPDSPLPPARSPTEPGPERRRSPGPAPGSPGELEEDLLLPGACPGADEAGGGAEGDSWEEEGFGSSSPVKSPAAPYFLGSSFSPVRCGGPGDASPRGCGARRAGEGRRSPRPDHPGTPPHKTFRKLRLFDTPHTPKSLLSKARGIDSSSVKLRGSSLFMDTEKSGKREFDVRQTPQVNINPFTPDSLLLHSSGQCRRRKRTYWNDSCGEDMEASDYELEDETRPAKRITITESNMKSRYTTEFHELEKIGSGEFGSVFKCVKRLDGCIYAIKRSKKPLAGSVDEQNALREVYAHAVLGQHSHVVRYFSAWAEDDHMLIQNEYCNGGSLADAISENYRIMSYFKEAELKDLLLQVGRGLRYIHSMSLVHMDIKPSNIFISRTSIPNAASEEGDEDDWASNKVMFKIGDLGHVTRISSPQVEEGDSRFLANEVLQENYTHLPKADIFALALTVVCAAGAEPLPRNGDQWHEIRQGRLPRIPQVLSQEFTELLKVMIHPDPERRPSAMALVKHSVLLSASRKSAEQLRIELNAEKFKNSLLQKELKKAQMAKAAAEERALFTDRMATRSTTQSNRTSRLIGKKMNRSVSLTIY
Assay Notes: Wee1 time-resolved fluorescence equilibrium binding assay (displacement of Oregon Green-labeled ATP-competitive kinase probe)
Answers are plain numbers, as −log10 of the molar value.

{"columns": ["Compound", "pKi"],
 "data": [
  ["CN1CCN(c2ccc(Nc3ncc4c(=O)n(-c5c(Cl)cccc5Cl)nc(-c5cnccn5)c4n3)cc2)CC1", 9.40],
  ["O=c1c2cnc(Nc3ccc4c(c3)CNCC43CC3)nc2c(-c2ccncc2)nn1-c1c(Cl)cccc1Cl", 10.05],
  ["CC(C)N1CCCC(c2nn(-c3c(Cl)cccc3Cl)c(=O)c3cnc(Nc4ccc(N5CCN(C)CC5)cc4)nc23)C1 (stereo not drawn)", 7.92],
  ["CC(C)n1nc(-c2ccncc2)c2nc(Nc3ccc(N4CCN(C)CC4)cc3)ncc2c1=O", 7.96],
  ["Cc1ccccc1-n1nc(-c2ccc(Cl)cc2Cl)c2nc(Nc3ccc(N4CCN(C)CC4)cc3)ncc2c1=O", 7.42]
]}

Return reported pKi values for all items listed beneath this line.
1. C=CCn1nc(-c2cccc(Br)c2)c2nc(Nc3ccc(N4CCN(C)CC4)cc3)ncc2c1=O
2. CC(O)Cn1nc(-c2ccccn2)c2nc(Nc3ccc4c(c3)CN(C)CC4(C)C)ncc2c1=O (stereo not drawn)
3. CN1CCN(c2ccc(Nc3ncc4c(=O)n(-c5c(Cl)cncc5Cl)nc(-c5cncs5)c4n3)cc2)CC1
4. CN1Cc2cc(Nc3ncc4c(=O)n(-c5c(Cl)cccc5Cl)nc(CO)c4n3)ccc2C2(CC2)C1
5. Cc1nn(-c2ncccc2Cl)c(=O)c2cnc(Nc3ccc4c(c3)CNCC43CC3)nc12
6. O=c1c2cnc(Nc3ccc4c(c3)CNCC43CC3)nc2c(-c2ccccn2)nn1-c1ccncc1Cl
7. C=CCn1nc(-c2ccccc2)c2nc(Nc3ccc(N4CCN(C(C)C)CC4)c(C)c3)ncc2c1=O

result:
1. 7.85
2. 6.76
3. 8.62
4. 9.70
5. 9.30
6. 8.14
7. 8.70

----------
Test System: GST-tagged-Wee1 kinase (Homo sapiens, UniProt P30291)
Assay Notes: Wee1 time-resolved fluorescence equilibrium binding assay (displacement of Oregon Green-labeled ATP-competitive kinase probe)
Procedure: Wee1 kinase was assayed using a time-resolved fluorescence equilibrium binding assay monitoring displacement of a rapidly reversible Oregon Green-labeled ATP-competitive kinase probe (N-(2-(2-(2-(4-(4-(5-chloro-4-(2-(1-hydroxycyclobutyl)thiazol-5-yl)-1H-pyrrolo[2,3-b]pyridin-2-yl)phenyl)piperazin-1-yl)ethoxy)ethoxy)ethyl)-2′,7′-difluoro-3′,6′-dihydroxy-3-oxo-3H-spiro[isobenzofuran-1,9′-xanthene]-5-carboxamide) by competitive Wee1 inhibitors.
Test Readout: pKi
Give bare numbers, as −log10 of the molar value.

Solved entries:
{"columns": ["Structure Smiles String", "pKi"],
 "data": [
  ["Cc1cc(Nc2ncc3c(=O)n(-c4ccccc4C)nc(-c4ccco4)c3n2)ccc1N1CCCN(C(C)C)CC1", 9.52],
  ["Cc1ccccc1-n1nc(-c2ccco2)c2nc(Nc3ccc4c(c3)CN(C)CC43CC3)ncc2c1=O", 9.52]
]}

Each of the following entries comes with a recorded value; kindly state pKi for each.
1. O=c1c2cnc(Nc3ccc(N4CCNCC4)cc3)nc2c(C(F)F)nn1-c1c(Cl)cccc1Cl
2. Cc1nn(-c2c(Cl)cccc2Cl)c(=O)c2cnc(Nc3ccc4c(c3)C(C)(C)N(C)CC4)nc12
3. CCc1nn(-c2c(Cl)cccc2Cl)c(=O)c2cnc(Nc3ccc4c(c3)CNCC4)nc12
4. CN1Cc2cc(Nc3ncc4c(=O)n(-c5c(Cl)cccc5Cl)nc(C(F)F)c4n3)ccc2C1(C)C
5. Cc1cccc(Cl)c1-n1nc(C)c2nc(Nc3ccc4c(c3)CN(CCO)CC4)ncc2c1=O
6. CN1CCN(c2ccc(Nc3ncc4c(=O)n(-c5c(Cl)cccc5Cl)nc(-c5cccc(CN6CCCCC6)c5)c4n3)cc2)CC1

result:
1. 9.10
2. 9.52
3. 9.68
4. 9.82
5. 9.68
6. 10.30

query: What value of pKi has been recorded for this entry: CN1CCN(c2ccc(Nc3ncc4c(=O)n(-c5ccccc5Cl)nc(-c5ccccn5)c4n3)cc2)CC1
result: 9.00

Where these numbers come from: patent US8796289B2
